Target: Histone acetyltransferase RTT109 (Saccharomyces cerevisiae (strain ATCC 204508 / S288c) (Baker's yeast), UniProt Q07794)
Sequence (Q07794 whole entry): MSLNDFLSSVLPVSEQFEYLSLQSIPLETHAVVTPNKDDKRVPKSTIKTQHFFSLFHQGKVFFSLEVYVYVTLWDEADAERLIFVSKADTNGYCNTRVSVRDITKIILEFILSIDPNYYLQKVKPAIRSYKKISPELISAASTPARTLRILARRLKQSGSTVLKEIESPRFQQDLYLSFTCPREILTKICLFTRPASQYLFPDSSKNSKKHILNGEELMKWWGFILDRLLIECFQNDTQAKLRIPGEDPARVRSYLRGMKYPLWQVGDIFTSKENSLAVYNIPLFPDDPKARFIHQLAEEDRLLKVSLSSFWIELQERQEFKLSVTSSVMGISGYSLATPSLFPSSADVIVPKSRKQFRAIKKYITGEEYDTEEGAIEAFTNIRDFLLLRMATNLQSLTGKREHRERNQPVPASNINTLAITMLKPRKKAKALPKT
Experiment: Inhibition of Vps75-stimulated recombinant Saccharomyces cerevisiae histone acetyltransferase Rtt109 using Asf1-dH3-H4 as substrate assessed as coenzyme A production after 45 mins by CPM based HTS assay
Settings: read-out: IC50
REPORTED METRIC: IC50 (µM)
Value expressed in µM; do not type the unit.

Tell me the measured IC50 of `CN(CCO)c1cc(Sc2nnc(-c3ccccc3)o2)c2nonc2c1[N+](=O)[O-]` , please. 5.3

One more compound: `[O-][Cl+3]([O-])([O-])[O-].c1ccc(-c2nc(N(c3ccccc3)c3ccccc3)s[n+]2-c2ccccc2)cc1` 3.5

One more compound: `O=S(=O)(C[n+]1sc(Nc2ccccc2)nc1-c1ccccc1)c1ccc2ccccc2c1.[Br-]` 28

One more compound: Cc1ccc(N2C(=O)CC(Sc3nncn3-c3ccccc3)C2=O)cc1 (stereo not given) 11

One more compound: `CC(C)c1ccc(S(=O)(=O)Nc2ccc(O)c(Sc3nc[nH]n3)c2)cc1` 200

###

Hi there, I'd appreciate the recorded log10(IC50) for every entry that follows.
molecular target: Histone acetyltransferase p300 (Homo sapiens); assay: Inhibition of recombinant histone acetyltransferase p300 (unknown origin) using dH3-H4 tetramer and [3H]-acetyl-CoA assessed as acetate incorporation […] by liquid scintillation counting; conditions: read-out: IC50
Sequence (Q09472 whole entry): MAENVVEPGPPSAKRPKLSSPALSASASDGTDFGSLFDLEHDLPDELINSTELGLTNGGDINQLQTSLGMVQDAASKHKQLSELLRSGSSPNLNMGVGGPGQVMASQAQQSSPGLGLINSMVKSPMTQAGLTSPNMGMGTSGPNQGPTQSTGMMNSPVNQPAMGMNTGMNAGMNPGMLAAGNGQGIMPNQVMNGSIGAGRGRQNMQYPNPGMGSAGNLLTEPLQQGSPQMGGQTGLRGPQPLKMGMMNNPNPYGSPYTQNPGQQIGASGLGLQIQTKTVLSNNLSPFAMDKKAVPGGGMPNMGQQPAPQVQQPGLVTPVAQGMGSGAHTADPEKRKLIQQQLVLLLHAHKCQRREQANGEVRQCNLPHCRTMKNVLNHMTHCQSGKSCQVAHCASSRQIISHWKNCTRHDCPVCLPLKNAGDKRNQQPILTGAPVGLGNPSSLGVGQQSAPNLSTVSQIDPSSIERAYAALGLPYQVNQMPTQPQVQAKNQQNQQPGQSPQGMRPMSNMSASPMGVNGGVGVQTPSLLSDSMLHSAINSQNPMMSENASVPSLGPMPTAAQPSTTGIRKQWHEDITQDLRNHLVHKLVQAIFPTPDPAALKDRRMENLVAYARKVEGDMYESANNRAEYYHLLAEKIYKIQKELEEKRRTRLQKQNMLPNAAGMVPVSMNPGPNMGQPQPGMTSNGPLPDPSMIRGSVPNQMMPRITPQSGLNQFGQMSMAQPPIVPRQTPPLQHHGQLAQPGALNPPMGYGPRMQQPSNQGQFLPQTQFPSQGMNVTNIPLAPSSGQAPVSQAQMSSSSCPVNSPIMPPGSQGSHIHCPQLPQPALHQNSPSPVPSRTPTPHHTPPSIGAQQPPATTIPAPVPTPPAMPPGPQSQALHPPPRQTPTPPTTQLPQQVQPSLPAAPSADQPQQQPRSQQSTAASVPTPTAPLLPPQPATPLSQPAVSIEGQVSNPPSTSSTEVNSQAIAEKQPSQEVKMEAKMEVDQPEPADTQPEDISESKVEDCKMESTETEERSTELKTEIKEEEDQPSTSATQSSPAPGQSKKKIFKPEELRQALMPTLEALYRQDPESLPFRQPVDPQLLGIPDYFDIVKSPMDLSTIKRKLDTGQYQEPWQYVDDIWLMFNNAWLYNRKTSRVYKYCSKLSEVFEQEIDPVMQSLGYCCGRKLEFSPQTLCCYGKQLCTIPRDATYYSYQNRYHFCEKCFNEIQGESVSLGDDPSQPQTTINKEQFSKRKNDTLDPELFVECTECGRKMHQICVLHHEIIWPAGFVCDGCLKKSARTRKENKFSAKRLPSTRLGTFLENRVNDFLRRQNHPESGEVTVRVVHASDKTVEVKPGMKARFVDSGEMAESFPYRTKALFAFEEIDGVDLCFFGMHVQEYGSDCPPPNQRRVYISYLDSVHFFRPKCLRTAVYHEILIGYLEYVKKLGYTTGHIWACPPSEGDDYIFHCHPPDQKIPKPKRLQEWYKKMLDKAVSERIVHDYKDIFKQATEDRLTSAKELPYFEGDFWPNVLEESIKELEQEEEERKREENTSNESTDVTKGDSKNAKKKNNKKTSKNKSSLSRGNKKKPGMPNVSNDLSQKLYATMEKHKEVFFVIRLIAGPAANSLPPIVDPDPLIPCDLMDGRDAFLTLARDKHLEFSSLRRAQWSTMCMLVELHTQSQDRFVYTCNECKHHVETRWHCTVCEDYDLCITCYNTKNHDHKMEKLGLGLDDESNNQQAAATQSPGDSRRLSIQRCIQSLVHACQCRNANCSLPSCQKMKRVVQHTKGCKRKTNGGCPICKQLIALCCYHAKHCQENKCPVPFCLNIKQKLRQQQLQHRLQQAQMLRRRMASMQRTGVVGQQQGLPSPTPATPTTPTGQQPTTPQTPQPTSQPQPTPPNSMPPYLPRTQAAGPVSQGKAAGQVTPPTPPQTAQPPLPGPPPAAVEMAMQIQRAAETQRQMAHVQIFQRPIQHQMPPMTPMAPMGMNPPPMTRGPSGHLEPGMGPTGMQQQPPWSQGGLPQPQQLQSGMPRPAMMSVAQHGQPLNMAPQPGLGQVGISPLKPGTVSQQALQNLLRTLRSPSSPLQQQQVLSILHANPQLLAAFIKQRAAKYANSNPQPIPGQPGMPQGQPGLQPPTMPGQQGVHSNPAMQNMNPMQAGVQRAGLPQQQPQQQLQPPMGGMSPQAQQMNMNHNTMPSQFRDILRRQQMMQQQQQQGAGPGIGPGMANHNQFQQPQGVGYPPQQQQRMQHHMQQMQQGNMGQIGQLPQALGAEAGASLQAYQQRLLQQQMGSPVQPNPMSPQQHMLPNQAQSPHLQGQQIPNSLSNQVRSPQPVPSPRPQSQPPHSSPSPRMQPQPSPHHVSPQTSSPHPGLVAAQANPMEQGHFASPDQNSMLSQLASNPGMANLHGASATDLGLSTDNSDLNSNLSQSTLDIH
Friendly reminder: values = log10 of IC50, unit nM.

Tell me the measured log10(IC50) of `O=C(O)CCSc1cc(NS(=O)(=O)c2ccc(Br)cc2)c2ccccc2c1O` , please. 3.00

One more compound: `O=C(O)CSc1cc(NS(=O)(=O)c2ccc(C(=O)O)cc2)c2ccccc2c1O` 2.82

One more compound: `O=S(=O)(Nc1cc(Cl)c(O)c2ccccc12)c1ccc(Br)cc1` 3.26

One more compound: O=C1CC(Sc2nnc(-c3ccccc3O)o2)C(=O)N1c1ccc(Br)cc1 (stereo not given) 3.57

One more compound: COc1ccc(-c2nnc(SC3CC(=O)N(c4ccc(Cl)cc4)C3=O)[nH]2)cc1 (stereo not given) 3.45

One more compound: `O=S1(=O)C=C(Sc2nnc(-c3ccncc3)o2)c2ccccc21` 3.79

One more compound: `O=[N+]([O-])c1c(Sc2nnnn2-c2ccccc2)cc(Cl)c2nonc12` 3.04

One more compound: `CCN(CC)c1ccc2c(C)c(-c3ccc(N4C(=O)C=CC4=O)cc3)c(=O)oc2c1` 2.41

One more compound: C=C(C)[C@@H](CC=C(C)C)C[C@@]12C[C@@H](CC=C(C)C)C(C)(C)[C@@](CC=C(C)C)(C(=O)C(C(=O)c3ccc(O)c(O)c3)=C1O)C2=O [GARCINOL] 3.23

One more compound: `CNc1nc(-c2ccccc2)[n+](-c2ccc(C)cc2)s1.[Br-]` 3.30

One more compound: `O=C(O)c1ccc(-n2nnnc2SC2=CS(=O)(=O)c3ccccc32)cc1` 3.88

One more compound: Cc1ccc(N2C(=O)CC(Sc3nncn3-c3ccccc3)C2=O)cc1 (stereo not given) 3.99

One more compound: `O=S(=O)(Nc1cc(Sc2nnnn2-c2ccccc2)c(O)c2ccccc12)c1ccccc1` 3.49

One more compound: `O=C(O)CSc1cc(NS(=O)(=O)c2ccc(Br)cc2)c2ccccc2c1O` 2.52

One more compound: `O=S1(=O)C=C(Sc2nnc(-c3ccccc3)o2)c2ccccc21` 4.04

One more compound: `O=S(=O)(Nc1cc(Sc2nc[nH]n2)c(O)c2ccccc12)c1ccc2ccccc2c1` 2.71

One more compound: `O=[N+]([O-])c1cc(Br)c2nsnc2c1Sc1ncnc2[nH]cnc12` 3.34

One more compound: `O=S(=O)(Nc1cc(Sc2nc[nH]n2)c(O)c2ccccc12)c1ccc(Br)cc1` 3.04

One more compound: `CNc1nc(-c2ccccc2)[n+](-c2ccccc2)s1.[Cl-]` 3.28

One more compound: `Cc1ccc(-c2nc(N)s[n+]2-c2ccccc2)cc1.[Br-]` 3.26

###

Biological target: Histone acetyltransferase RTT109 (Saccharomyces cerevisiae (strain ATCC 204508 / S288c) (Baker's yeast)) (UniProt Q07794)
Sequence (whole entry): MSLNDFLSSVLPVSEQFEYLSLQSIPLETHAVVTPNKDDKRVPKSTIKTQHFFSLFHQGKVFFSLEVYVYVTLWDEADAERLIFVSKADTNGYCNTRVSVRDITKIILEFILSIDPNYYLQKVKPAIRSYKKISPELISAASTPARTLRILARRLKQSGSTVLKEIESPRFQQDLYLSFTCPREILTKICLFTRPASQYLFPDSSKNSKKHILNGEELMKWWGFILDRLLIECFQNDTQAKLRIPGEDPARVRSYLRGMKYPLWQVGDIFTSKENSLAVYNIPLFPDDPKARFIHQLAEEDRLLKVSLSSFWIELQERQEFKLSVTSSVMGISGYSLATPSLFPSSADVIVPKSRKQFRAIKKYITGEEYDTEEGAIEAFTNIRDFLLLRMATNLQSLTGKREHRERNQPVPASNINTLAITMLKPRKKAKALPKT
Experiment: Inhibition of Vps75-stimulated recombinant Saccharomyces cerevisiae histone acetyltransferase Rtt109 assessed as H3K56 acetylated product at […] after 45 mins by Slot bolt inhibiton assay
Active and inactive are the calls of the source. No rule for the calls is given here.
REPORTED METRIC: Activity

Use the examples below as a reference point.
[
  {
    "MOLECULE": "O=C1CC(Sc2nnc(-c3ccccc3)[nH]2)C(=O)N1c1ccc(Oc2ccccc2)cc1 (stereo unspecified)",
    "Activity": "Active"
  },
  {
    "MOLECULE": "Nc1ncnc2[nH]c(Sc3c([N+](=O)[O-])cc(Br)c4nsnc34)nc12",
    "Activity": "Active"
  },
  {
    "MOLECULE": "CC(C)c1ccc(S(=O)(=O)Nc2ccc(O)c(Br)c2)cc1",
    "Activity": "inactive"
  },
  {
    "MOLECULE": "COc1ccc(-c2nc(N)s[n+]2-c2ccccc2)cc1.[Cl-]",
    "Activity": "Active"
  },
  {
    "MOLECULE": "CNc1nc(-c2ccccc2)[n+](-c2ccc(C)cc2)s1.[Br-]",
    "Activity": "Active"
  }
]

Tell me the measured Activity of `Cc1ccc(-c2nc(N)s[n+]2-c2ccccc2)cc1.[Br-]` , please. Active

One more molecule: `O=S(=O)(Nc1ccc(O)c(Br)c1)c1ccc(Cl)cc1` inactive

One more molecule: `O=[N+]([O-])c1c(SCc2ccccc2)cc(Cl)c2nonc12` Active

One more molecule: `O=C1C=CC(=O)N1c1ccc(Cl)cc1` Active

One more molecule: COc1ccc(N2C(=O)CC(Sc3n[nH]c(-c4ccc(C)cc4)n3)C2=O)cc1 (stereo unspecified) Active

One more molecule: `O=C1C=CC(=O)N1c1ccc(Oc2ccccc2)cc1` Active

###

assay: Fluorescence quenching in HTS buffer assessed as fluorescence signal reduction at 10 uM after 10 mins; assay type: physicochemical
REPORTED METRIC: Activity

Use the examples below as a reference point.
[
  {
    "COMPOUND": "O=C1C=CC(=O)N1c1cccc(F)c1",
    "REPORTED METRIC": "Activity",
    "RESULT": "Not Active"
  },
  {
    "COMPOUND": "COc1ccc(Cc2nnc(SC3=CS(=O)(=O)c4ccccc43)o2)cc1",
    "REPORTED METRIC": "Activity",
    "RESULT": "Not Active"
  },
  {
    "COMPOUND": "O=[N+]([O-])c1cccc(S(=O)(=O)Nc2cc(Br)c(O)c3ccccc23)c1",
    "REPORTED METRIC": "Activity",
    "RESULT": "Not Active"
  },
  {
    "COMPOUND": "CSc1nsc(SC2=CS(=O)(=O)c3ccccc32)n1",
    "REPORTED METRIC": "Activity",
    "RESULT": "Not Active"
  },
  {
    "COMPOUND": "O=C(O)CSc1cc(NS(=O)(=O)c2ccc(C(=O)O)cc2)c2ccccc2c1O",
    "REPORTED METRIC": "Activity",
    "RESULT": "Not Active"
  },
  {
    "COMPOUND": "COc1ccc(N2C(=O)CC(Sc3nnc(-c4ccccc4)o3)C2=O)cc1 (configuration not stated)",
    "REPORTED METRIC": "Activity",
    "RESULT": "Not Active"
  },
  {
    "COMPOUND": "O=S(=O)(Nc1cc(Sc2nc[nH]n2)c(O)c2ccccc12)c1ccccc1",
    "REPORTED METRIC": "Activity",
    "RESULT": "Not Active"
  },
  {
    "COMPOUND": "O=[N+]([O-])c1c(Sc2ncnc3[nH]cnc23)cc(Cl)c2nsnc12",
    "REPORTED METRIC": "Activity",
    "RESULT": "Not Active"
  }
]

Tell me the measured Activity of `O=[N+]([O-])c1c(Sc2nnnn2-c2ccccc2)cc(Cl)c2nonc12` , please. Not Active

One more compound: `O=S(=O)(Nc1cc(Cl)c(O)c2ccccc12)c1ccc(Br)cc1` Not Active
